# assayContext: buffer; pH 7.4; 200.0 µM
# label = T if solubility kinetic >= 20 µg/mL else F

INSERT INTO assay_data (compound, qualitativelabel) VALUES
  ('O=C(NC1CCN(C(=S)NCCc2ccccc2)CC1)C1CC1', 'F'),
  ('Cc1ccccc1N1C(=O)CSC1=C(C#N)C#N', 'T'),
  ('COc1ccc(OC)c(N/C=C/C(=O)c2ccccc2)c1', 'F'),
  ('CCN(CC(=O)NCc1ccc(F)cc1)CC(=O)NC1CCCC1', 'T'),
  ('CC(=O)Nc1ccccc1C(=O)OCc1ccccc1F', 'T');

Exercise: Could you tell me if the measured solubility kinetic of O=C(Nc1ccc(Cl)cc1)/C(=C1\CCCN1)[N+](=O)[O-] reaches 20 µg/mL or more?
Solution: F

Exercise: Could you tell me if the measured solubility kinetic of CN(C)C1(CNC(=O)Cc2ccccc2F)CCCCC1 reaches 20 µg/mL or more?
Solution: T

Exercise: Could you tell me if the measured solubility kinetic of CCOc1ccc(-c2nc[nH]c2[N+](=O)[O-])cc1 reaches 20 µg/mL or more?
Solution: F

Exercise: Could you tell me if the measured solubility kinetic of CSc1nc(-c2ccc(Cl)cc2)nc(N)c1C#N reaches 20 µg/mL or more?
Solution: F

Exercise: Could you tell me if the measured solubility kinetic of O=S(=O)(Cc1ccccc1)N1CCN(c2ncccn2)CC1 reaches 20 µg/mL or more?
Solution: F

Exercise: Could you tell me if the measured solubility kinetic of O=C(CC1SC(N2CCOCC2)=NC1=O)Nc1cccc(C(F)(F)F)c1 (stereo not drawn) reaches 20 µg/mL or more?
Solution: T

Exercise: Could you tell me if the measured solubility kinetic of CCOC(=O)Cc1csc(N(C)C)n1 reaches 20 µg/mL or more?
Solution: T

Exercise: Could you tell me if the measured solubility kinetic of COc1ccc(NC(=O)c2cc3ccccc3oc2=O)c(OC)c1 reaches 20 µg/mL or more?
Solution: F

Exercise: Could you tell me if the measured solubility kinetic of Cc1ccc(C)c(N2CCN(CCCc3ccccc3)CC2)c1 reaches 20 µg/mL or more?
Solution: F

FYI, the data here is from PubChem BioAssay AID1996.
